Molecular target: UniProt:P18031
Sequence (P18031 whole entry): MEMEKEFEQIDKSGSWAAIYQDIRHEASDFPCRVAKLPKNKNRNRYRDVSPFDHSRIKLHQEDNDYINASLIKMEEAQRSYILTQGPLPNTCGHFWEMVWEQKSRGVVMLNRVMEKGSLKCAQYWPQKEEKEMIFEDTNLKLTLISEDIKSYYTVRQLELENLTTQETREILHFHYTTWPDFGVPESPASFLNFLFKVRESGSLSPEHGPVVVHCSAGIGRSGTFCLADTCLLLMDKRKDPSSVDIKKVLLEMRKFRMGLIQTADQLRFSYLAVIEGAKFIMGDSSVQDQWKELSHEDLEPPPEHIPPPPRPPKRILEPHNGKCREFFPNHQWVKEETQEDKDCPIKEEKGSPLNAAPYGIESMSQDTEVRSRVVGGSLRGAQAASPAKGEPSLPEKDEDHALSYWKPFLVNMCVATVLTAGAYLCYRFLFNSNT
Test: malachite green phosphopeptide test
Assay type: biochemical
Conditions: malachite green phosphopeptide test method, for comparison
Excerpt: The malachite green phosphopeptide test has been described as another method for measuring the activity of protein tyrosine phosphatases. Martin et al. (1985) Journal of Biological Chemistry, 260, pp. 14932 and Harder et al. (1994) Biochemical Journal, 298, pp. 395. In this method, the inorganic phosphate which the phosphatase has released from its substrate peptide is detected photometrically using the malachite green reagent. […]
measured_property: pIC50
Remember, pIC50 is on a log scale: it is -log10 of the molar concentration.

Given "CCn1c2ccccc2c2cc(CNc3ccc4c(c3)NS(=O)(=O)O4)ccc21" , state its recorded pIC50.
5.41
